Tested on: gray mold fungus (Botrytis cinerea)
Test: Cucumber leaf disk preventive test against gray mold fungus
Assay type: in vivo
Conditions: carboxamide compound alone, 0.5 ppm; cucumber leaf disk, 15° C., four days
Readout type: preventive value (%)
The response must be a number in % with no trailing unit.

Enquiry: Need preventive value (%) of Cc1nn(C)c(Cl)c1C(=O)Nc1cccc2c1C(C)OC2(C)C (stereo not shown) , thanks.
Return: 15

Enquiry: Need preventive value (%) of N#Cc1ccccc1NC(=O)c1snc(Cl)c1Cl , thanks.
Return: 10

Enquiry: Need preventive value (%) of COC(=O)[C@@H](C)N(C(=O)Cc1ccccc1)c1c(C)cccc1C , thanks.
Return: 10

Enquiry: Need preventive value (%) of CC(C)C1C2CCC1c1c(NC(=O)c3cn(C)nc3C(F)F)cccc12 (stereo not shown) , thanks.
Return: 20
